The origin of these recorded values is PubChem BioAssay.

target.under.test: Pantothenate synthetase (Mycobacterium tuberculosis (strain ATCC 25618 / H37Rv))
assay.text: Coupled enzyme confirmation of inhibitors against recombinant Mtb PanC (AID 375);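 also: 0% = full reaction with vehicle and 100% = no enzyme background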
run.parameters: coupled enzyme assay; at 10 µM, active compounds read high
The source made the active and inactive calls. No rule for the calls is given here.
measurement.label: inhibition

The compound O=C(OCc1nnc(-c2ccccc2)o1)c1ccc(S(=O)(=O)NCc2ccco2)cc1 showed inhibition equal to 0% (inactive)

The compound CN(C)c1cccc2c(S(=O)(=O)Nc3ccccn3)cccc12 showed inhibition equal to 1% (inactive)

The compound N#Cc1ccccc1Cn1c(=O)n(Cc2ccc(C(=O)NCc3ccco3)cc2)c(=O)c2ccccc21 showed inhibition equal to 0% (inactive)

The compound O=C(Nc1cccc(F)c1)c1ccc2c(c1)OCO2 showed inhibition equal to 2% (inactive)

The compound CC1(C)S[C@@H]2[C@H](NC(=O)[C@H](N)c3ccccc3)C(=O)N2[C@H]1C(=O)O showed inhibition equal to 2% (inactive)

The compound Cc1ccc(-c2ccc(/C=N/n3cnnc3)o2)cc1Cl showed inhibition equal to 11% (inactive)

* * *

target.under.test: Pantothenate synthetase (Mycobacterium tuberculosis (strain ATCC 25618 / H37Rv))
assay.text: Coupled enzyme confirmation of inhibitors against recombinant Mtb PanC (AID 375);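 also: 0% = full reaction with vehicle and 100% = no enzyme background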
run.parameters: coupled enzyme assay; at 10 µM, active compounds read high
measurement.label: inhibition (%)
Dear colleague, please return just the value in %, with no unit written.

Lab note: compound O=C(CCCCCN1C(=O)CCC1=O)NCc1ccccc1 tested on Pantothenate synthetase (Mycobacterium tuberculosis (strain ATCC 25618 / H37Rv)); recorded inhibition was 11

Lab note: compound CCOC(=O)c1[nH]c2cc(OC)c(OC)cc2c1NC(=O)C(C)N1CCN(Cc2ccccc2)CC1 (stereo not given) tested on Pantothenate synthetase (Mycobacterium tuberculosis (strain ATCC 25618 / H37Rv)); recorded inhibition was 1

Lab note: compound O=C(CN1C(=O)c2ccccc2S1(=O)=O)NCc1ccccc1Cl tested on Pantothenate synthetase (Mycobacterium tuberculosis (strain ATCC 25618 / H37Rv)); recorded inhibition was 0

Lab note: compound CCn1ncc(Cl)c1C(=O)Nc1ccncc1 tested on Pantothenate synthetase (Mycobacterium tuberculosis (strain ATCC 25618 / H37Rv)); recorded inhibition was 3

Lab note: compound FC(F)(F)c1cccc(N2CCN(c3nnnn3-c3ccccc3)CC2)c1 tested on Pantothenate synthetase (Mycobacterium tuberculosis (strain ATCC 25618 / H37Rv)); recorded inhibition was 0

Lab note: compound COc1ccc(NC(=O)CN2CCCCC2)cc1 tested on Pantothenate synthetase (Mycobacterium tuberculosis (strain ATCC 25618 / H37Rv)); recorded inhibition was 0

Lab note: compound CC(=O)CCc1c(C)[nH]c2ccccc2c1=O tested on Pantothenate synthetase (Mycobacterium tuberculosis (strain ATCC 25618 / H37Rv)); recorded inhibition was 1

Lab note: compound Cc1ccc(-c2nc3cc(NC(=O)C(C)C)ccc3o2)cc1 tested on Pantothenate synthetase (Mycobacterium tuberculosis (strain ATCC 25618 / H37Rv)); recorded inhibition was 0

Lab note: compound Cc1ccc2nc3c(cc2c1)CN(Cc1ccco1)C(=NCC1CCCO1)S3 (stereo not given) tested on Pantothenate synthetase (Mycobacterium tuberculosis (strain ATCC 25618 / H37Rv)); recorded inhibition was 0

Lab note: compound CC[C@H]1OC(=O)C[C@@H](O)[C@H](C)[C@@H](O[C@@H]2O[C@H](C)C[C@H](N(C)C)[C@H]2O)[C@@H](CC=O)C[C@@H](C)C(=O)C=C[C@]2(C)O[C@H]2[C@@H]1C tested on Pantothenate synthetase (Mycobacterium tuberculosis (strain ATCC 25618 / H37Rv)); recorded inhibition was 0

Lab note: compound Cc1ccc(CNC(=O)CSc2n[nH]c(N)n2)cc1 tested on Pantothenate synthetase (Mycobacterium tuberculosis (strain ATCC 25618 / H37Rv)); recorded inhibition was 0

Lab note: compound COc1ccc(Cl)cc1C(=O)NCCc1ccc(S(=O)(=O)NC(=O)NC2CCCCC2)cc1 tested on Pantothenate synthetase (Mycobacterium tuberculosis (strain ATCC 25618 / H37Rv)); recorded inhibition was 0

Lab note: compound COC(=O)c1ccccc1NC(=O)C12CCC(C)(C(=O)O1)C2(C)C (stereo not given) tested on Pantothenate synthetase (Mycobacterium tuberculosis (strain ATCC 25618 / H37Rv)); recorded inhibition was 0

Lab note: compound C[N+](C)(C)CCCCCCCCCC[N+](C)(C)C tested on Pantothenate synthetase (Mycobacterium tuberculosis (strain ATCC 25618 / H37Rv)); recorded inhibition was 4

Lab note: compound COc1ccccc1OCC(=O)Nc1ccc(S(=O)(=O)Nc2nc(C)cc(C)n2)cc1 tested on Pantothenate synthetase (Mycobacterium tuberculosis (strain ATCC 25618 / H37Rv)); recorded inhibition was 1

Lab note: compound O=C(CSc1nc(N2CCCCC2)nc(N2CCCCC2)n1)Nc1nccs1 tested on Pantothenate synthetase (Mycobacterium tuberculosis (strain ATCC 25618 / H37Rv)); recorded inhibition was 0

Lab note: compound CCN(CC)Cc1c(C(=O)OC)nnn1-c1nonc1N tested on Pantothenate synthetase (Mycobacterium tuberculosis (strain ATCC 25618 / H37Rv)); recorded inhibition was 0

Lab note: compound CCOc1cc(C(=O)N2CCN(c3ccccc3)CC2)cc(OCC)c1OCC tested on Pantothenate synthetase (Mycobacterium tuberculosis (strain ATCC 25618 / H37Rv)); recorded inhibition was 3

Lab note: compound Cc1cccc(CCNC(=O)CCc2nc(-c3ccccc3F)no2)c1 tested on Pantothenate synthetase (Mycobacterium tuberculosis (strain ATCC 25618 / H37Rv)); recorded inhibition was 0

Lab note: compound Cn1c(=O)c(NC(=O)c2ccccc2)c2n(c1=S)CCCCC2 tested on Pantothenate synthetase (Mycobacterium tuberculosis (strain ATCC 25618 / H37Rv)); recorded inhibition was 0

Lab note: compound COc1ccc(C(=O)CSc2nnc(CNc3ccc(C)cc3C)o2)cc1 tested on Pantothenate synthetase (Mycobacterium tuberculosis (strain ATCC 25618 / H37Rv)); recorded inhibition was 2

Lab note: compound CC(C)N(C(=O)CSc1nnc(-c2cc3ccccc3cc2O)n1Cc1ccco1)C(C)C tested on Pantothenate synthetase (Mycobacterium tuberculosis (strain ATCC 25618 / H37Rv)); recorded inhibition was 1

Lab note: compound COc1cccc(NS(=O)(=O)c2cc(C)sc2C)c1 tested on Pantothenate synthetase (Mycobacterium tuberculosis (strain ATCC 25618 / H37Rv)); recorded inhibition was 0

Lab note: compound Cn1c(=O)[nH]c(=O)c2c1nc(NCCCn1ccnc1)n2Cc1ccccc1 tested on Pantothenate synthetase (Mycobacterium tuberculosis (strain ATCC 25618 / H37Rv)); recorded inhibition was 0

Lab note: compound COc1ccccc1NC(=O)C(O)C(O)C(=O)Nc1ccccc1OC (stereo not given) tested on Pantothenate synthetase (Mycobacterium tuberculosis (strain ATCC 25618 / H37Rv)); recorded inhibition was 3

Lab note: compound O=C1CC(c2ccsc2)c2cc3c(cc2N1)OCCO3 (stereo not given) tested on Pantothenate synthetase (Mycobacterium tuberculosis (strain ATCC 25618 / H37Rv)); recorded inhibition was 0

Lab note: compound O=C(NCCCN1CCCC1=O)c1ccc2c(c1)NC(=O)C(N1CCOCC1)S2 (stereo not given) tested on Pantothenate synthetase (Mycobacterium tuberculosis (strain ATCC 25618 / H37Rv)); recorded inhibition was 2

Lab note: compound CC(C)(C)n1ncc2c(=O)n(CC(=O)c3ccccc3)cnc21 tested on Pantothenate synthetase (Mycobacterium tuberculosis (strain ATCC 25618 / H37Rv)); recorded inhibition was 0

Lab note: compound CCn1cc(C(=O)NCCCOC)c(=O)c2cc(S(=O)(=O)N(C)C)ccc21 tested on Pantothenate synthetase (Mycobacterium tuberculosis (strain ATCC 25618 / H37Rv)); recorded inhibition was 0

Lab note: compound CCCCNC(=O)CN(C1CCCCC1)S(C)(=O)=O tested on Pantothenate synthetase (Mycobacterium tuberculosis (strain ATCC 25618 / H37Rv)); recorded inhibition was 8

* * *

What inhibition was measured for each of the following?
target.under.test: Pantothenate synthetase (Mycobacterium tuberculosis (strain ATCC 25618 / H37Rv))
assay.text: Coupled enzyme confirmation of inhibitors against recombinant Mtb PanC (AID 375);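 also: 0% = full reaction with vehicle and 100% = no enzyme background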
run.parameters: coupled enzyme assay; at 10 µM, active compounds read high
Dear colleague, please return just the value in %, with no unit written.

The molecule CCc1nnc(NC(=O)c2ccc(COc3ccc(C)cc3)o2)s1 showed inhibition equal to 1

The molecule O=C(NCc1ccccn1)c1ccc2nc(-c3ccco3)c(-c3ccco3)nc2c1 showed inhibition equal to 1

The molecule COC(=O)Cn1c(CCS(=O)(=O)c2ccc(C)cc2)nc2ccccc21 showed inhibition equal to 1

* * *

target.under.test: Pantothenate synthetase (Mycobacterium tuberculosis (strain ATCC 25618 / H37Rv)) (UniProt P9WIL5)
Sequence (P9WIL5 whole entry, looked up): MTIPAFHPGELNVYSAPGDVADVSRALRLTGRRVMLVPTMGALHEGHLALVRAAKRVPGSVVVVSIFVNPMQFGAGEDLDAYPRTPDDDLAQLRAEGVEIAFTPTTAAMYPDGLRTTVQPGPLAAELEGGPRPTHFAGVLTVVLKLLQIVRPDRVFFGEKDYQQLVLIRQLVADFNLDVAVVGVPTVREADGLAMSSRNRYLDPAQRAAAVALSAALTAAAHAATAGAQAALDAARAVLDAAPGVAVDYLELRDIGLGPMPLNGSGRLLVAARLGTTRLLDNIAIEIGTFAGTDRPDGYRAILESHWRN
assay.text: Coupled enzyme confirmation of inhibitors against recombinant Mtb PanC (AID 375);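 also: 0% = full reaction with vehicle and 100% = no enzyme background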
run.parameters: coupled enzyme assay; at 10 µM, active compounds read high
What inhibition was measured for each of the following?
Dear colleague, please return just the value in %, with no unit written.

The compound CC(=O)c1cc(-c2ccccc2)n(CC(=O)N2CCC(N3CCCCC3)CC2)c1C showed inhibition equal to 0

The compound CC(C(=O)Nc1ccccc1-c1ccccc1)N1CCOCC1 (centres undefined) showed inhibition equal to 1

The compound CCCC(=O)Nc1ccccc1NC(=O)CCC showed inhibition equal to 0

The compound CN1/C(=C\C(=O)Nc2cccnc2)c2ccccc2CC1(C)C showed inhibition equal to 3

The compound CCCC(=O)O[C@]1(C(=O)COC(C)=O)CC[C@H]2[C@@H]3C[C@H](F)C4=CC(=O)C=C[C@]4(C)[C@@]3(F)[C@@H](O)C[C@@]21C showed inhibition equal to 0

The compound CCOC(=O)C1CCN(C(=O)CN(Cc2ccccc2)S(C)(=O)=O)CC1 showed inhibition equal to 1

The compound O=C(Nc1ccc2c(c1)OCO2)c1ccc(Br)c(S(=O)(=O)N2CCCC2)c1 showed inhibition equal to 1

The compound CC(C)CNC(=O)c1ccccc1NC(=O)CN(c1ccc2c(c1)OCCO2)S(C)(=O)=O showed inhibition equal to 0

The compound CC(C(=O)NC(=O)NC1CCCCC1)N1CCN(c2ccccn2)CC1 (centres undefined) showed inhibition equal to 0

The compound CCOC(=O)c1c(C)[nH]c(C(=O)Cn2c(=O)c3c(ncn3CC)n(Cc3ccccc3)c2=O)c1C showed inhibition equal to 3

The compound Cc1cccc(OCC(=O)N2CCC(c3ccccc3)C2)c1 (centres undefined) showed inhibition equal to 3

The compound O=C(c1ccc2c(c1)OCCO2)N1CCCCC1 showed inhibition equal to 1

The compound COc1cc(C)nc(N2CCCC(C(=O)Nc3cccc(Cl)c3Cl)C2)n1 (centres undefined) showed inhibition equal to 0

The compound COC(=O)C(C)NC(=O)C12CC3CC(CC(C3)C1)C2 (centres undefined) showed inhibition equal to 0

The compound CC1=C(C(=O)OC(C)C)C(C2CC=CCC2)NC(=O)N1 (centres undefined) showed inhibition equal to 6

The compound CCOC(=O)c1ccc2[nH]c3c(c2c1)CCCCC3=O showed inhibition equal to 0

The compound CC(Sc1nc(-c2ccccc2)cc(C(F)(F)F)n1)C(=O)N1CCC(C(N)=O)CC1 (centres undefined) showed inhibition equal to 0

The compound CCOC(=O)C1CCCN(C(=O)c2sc3nc(-c4ccccc4)cn3c2C)C1 (centres undefined) showed inhibition equal to 0

The compound COC(=O)C1C2c3ccccc3OC1(C)N=c1s/c(=C/c3cnn(C)c3C)c(=O)n12 (centres undefined) showed inhibition equal to 7
